biological target: GABAA Receptor; conditions: radioligand binding
pIC50: −log10 of the molar value.
OBSERVED_PROPERTY: pIC50

Query string: Could you please provide reported pIC50 for CNC1(c2ccccc2Cl)CCCCC1=O (stereo not shown) [Ketamine] ? Thanks!
Result string: < 5.00

====

target: HCN1 K^+ Channel (Homo sapiens); construct: Eurofins Panlabs Ltd., Taipei, Taiwan 952727; test: Molecular target binding profile: patch-clamp functional assay (Eurofins Panlabs 952727)
Sequence (O60741 whole entry): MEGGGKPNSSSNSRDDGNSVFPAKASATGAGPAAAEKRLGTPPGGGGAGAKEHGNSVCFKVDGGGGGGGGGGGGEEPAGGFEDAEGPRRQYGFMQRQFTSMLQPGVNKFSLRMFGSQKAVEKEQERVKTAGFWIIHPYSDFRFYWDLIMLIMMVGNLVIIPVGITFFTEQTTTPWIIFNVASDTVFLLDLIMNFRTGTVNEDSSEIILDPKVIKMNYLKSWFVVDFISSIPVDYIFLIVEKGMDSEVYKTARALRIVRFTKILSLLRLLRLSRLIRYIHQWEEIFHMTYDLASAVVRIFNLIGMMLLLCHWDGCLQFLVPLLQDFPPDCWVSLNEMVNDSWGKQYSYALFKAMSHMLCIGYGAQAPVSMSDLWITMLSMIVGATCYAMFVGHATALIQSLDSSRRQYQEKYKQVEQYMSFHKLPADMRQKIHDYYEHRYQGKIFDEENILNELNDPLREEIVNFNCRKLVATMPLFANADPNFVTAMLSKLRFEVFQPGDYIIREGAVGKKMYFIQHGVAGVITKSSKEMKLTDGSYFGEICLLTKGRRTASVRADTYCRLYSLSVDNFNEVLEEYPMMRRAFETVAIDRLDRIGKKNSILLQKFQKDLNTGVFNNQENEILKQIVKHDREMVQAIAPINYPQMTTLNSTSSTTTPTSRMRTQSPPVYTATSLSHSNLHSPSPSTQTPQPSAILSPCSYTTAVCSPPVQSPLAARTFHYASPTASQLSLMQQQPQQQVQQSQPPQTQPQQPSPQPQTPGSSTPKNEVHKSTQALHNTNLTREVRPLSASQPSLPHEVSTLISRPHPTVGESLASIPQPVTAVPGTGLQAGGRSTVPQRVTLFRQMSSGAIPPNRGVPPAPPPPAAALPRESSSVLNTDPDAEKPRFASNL
OBSERVED_PROPERTY: IC50

Query string: Using the record for CNC1(c2ccccc2Cl)CCCCC1=O (stereo not shown) , state its measured IC50.
Result string: > 100 µM

Recorded values, source paper PMC6923863.
